# assay-name: Cytotoxicity against human PANC cells after 72 hrs by CCK-8 assay
# Assay type: functional, cell-based

{"columns": ["compound-structure-string", "IC50 (µM)"],
 "data": [
  ["c1ccc(-c2csc3ncnc(N4CCc5ccccc5C4)c23)cc1", 42.3]
]}

###

# System: SK-OV-3
# assay-name: Cytotoxicity against human SKOV3 cells after 72 hrs by CCK-8 assay
# Format: functional, cell-based
# measurement-parameters: SK-OV-3, 72 h
pIC50: −log10 of the molar value.
property-name: pIC50

{"columns": ["compound-structure-string", "measured-number"],
 "data": [
  ["c1ccc(-c2csc3ncnc(N4CCc5ccccc5C4)c23)cc1", 4.69]
]}

###

# Test system: A549
# assay-name: Cytotoxicity against human A549 cells after 72 hrs by CCK-8 assay
# Type: functional, cell-based
# measurement-parameters: A549, 72 h

{"columns": ["compound-structure-string", "measurement-target", "IC50"],
 "data": [
  ["c1ccc(-c2csc3ncnc(N4CCc5ccccc5C4)c23)cc1", "A549", "> 100 µM"]
]}

###

# measurement-target: Aurora kinase B (Homo sapiens)
# Sequence (Q96GD4 whole entry): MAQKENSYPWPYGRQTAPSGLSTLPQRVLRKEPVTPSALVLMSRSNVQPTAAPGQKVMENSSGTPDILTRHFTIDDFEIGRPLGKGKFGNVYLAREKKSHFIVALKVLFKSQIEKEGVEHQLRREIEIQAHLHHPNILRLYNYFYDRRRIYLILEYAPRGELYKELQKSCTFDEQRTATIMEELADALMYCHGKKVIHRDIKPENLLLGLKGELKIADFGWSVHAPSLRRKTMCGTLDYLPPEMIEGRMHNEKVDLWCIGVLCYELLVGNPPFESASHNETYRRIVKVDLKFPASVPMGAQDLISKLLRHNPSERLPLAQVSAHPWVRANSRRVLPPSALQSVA
# assay-name: Inhibition of recombinant Aurora B kinase (unknown origin) expressed in Escherichia coli
pIC50: −log10 of the molar value.

{"columns": ["compound-structure-string", "pIC50"],
 "data": [
  ["c1ccc(-c2csc3ncnc(N4CCc5ccccc5C4)c23)cc1", 6.85]
]}
